// provenance: patent US10294202B2

Entries annotated with measured Plant response rating, Crabgrass, Large
Tested on: crabgrass, large
METHOD DESCRIPTION: Test C pre-/postemergence herbicide test
Type: in vivo, Digitaria sanguinalis
APPLIED CONDITIONS: Preemergence, 125 g ai/ha; scale 0 to 100 (0 no effect, 100 complete control)
Please reply with the number alone, leaving off any unit.

CN1CC(c2ccc(F)c(F)c2)C(C(=O)Nc2cccc(F)c2F)C1=O (stereo not shown) [Compound 303]    98
Cc1ccccc1NC(=O)C1C(=O)NCC1c1cccc(C(F)(F)F)c1 (racemic) [Compound 109]    100
O=C1NCC(c2ccc(Cl)c(F)c2)C1C(=O)Nc1cccc(F)c1F (stereo not shown) [Compound 52]    90
O=C1NCCC1C(=O)N(c1ccc(F)c(F)c1)c1ccccc1F (stereo not shown) [Compound 5]    100

Q: Give the measured Plant response rating, Crabgrass, Large of CN1CC(c2cccc(C(F)(F)F)c2)C(C(=O)Nc2cccc(F)c2F)C1=O (stereo not shown) [Compound 305] .
Ans: 90

Q: Give the measured Plant response rating, Crabgrass, Large of O=C1NCC(c2ccc(C(F)(F)F)cc2)C1C(=O)Nc1ccccc1F (stereo not shown) [Compound 79] .
Ans: 100

Q: Give the measured Plant response rating, Crabgrass, Large of O=C1NCC(c2cccc(OC(F)F)c2)C1C(=O)Nc1cccc(F)c1F (stereo not shown) [Compound 224] .
Ans: 90

* * *

Entries annotated with measured Plant response rating, Corn
Test system: corn
METHOD DESCRIPTION: Test C pre-/postemergence herbicide test
Assay type: in vivo, Zea mays
APPLIED CONDITIONS: Preemergence, 125 g ai/ha; scale 0 to 100 (0 no effect, 100 complete control)
Please reply with the number alone, leaving off any unit.

O=C1NCC(c2ccc(Cl)c(Cl)c2)C1C(=O)Nc1ccccc1F (racemic)    0
CN1CC(c2ccc(C(F)(F)F)cc2)C(C(=O)Nc2cccc(F)c2F)C1=O (stereo not drawn)    80
O=C1NCC(c2cccc(OC(F)F)c2)C1C(=O)Nc1cccc(F)c1F (stereo not drawn)    85
O=C1NC[C@H](c2cccc(C(F)(F)F)c2)[C@H]1C(=O)Nc1cccc(F)c1F    65
O=C1NCC(c2ccc(F)c(Cl)c2)C1C(=O)Nc1ccccc1F (stereo not drawn)    20

Q: Find Plant response rating, Corn (corn) for the entry O=C1NCC(c2ccc(C(F)(F)F)cc2)C1C(=O)Nc1ccccc1F (stereo not drawn)
Ans: 10

* * *

Entries annotated with measured Plant response rating, Crabgrass, Large
System: crabgrass, large
METHOD DESCRIPTION: Test A pre-/postemergence herbicide test
Type: in vivo, Digitaria sanguinalis
APPLIED CONDITIONS: Postemergence, 125 g ai/ha; 0 to 100 scale, 0 no effect, 100 complete control
Please reply with the number alone, leaving off any unit.

O=C1NCC(c2ccc(F)c(F)c2)C1C(=O)Nc1ccccc1C(F)(F)F (racemic) [Compound 6]    60

Q: Give the measured Plant response rating, Crabgrass, Large of Cc1cccc(C2CN(C(=O)OC(C)(C)C)C(=O)C2C(=O)Nc2ccccc2F)c1 (stereo not drawn) [Compound 37] .
Ans: 0

Q: Give the measured Plant response rating, Crabgrass, Large of O=C1NCC(c2ccc3c(c2)OC(F)(F)O3)C1C(=O)Nc1ccccc1F (stereo not drawn) [Compound 63] .
Ans: 80

Q: Give the measured Plant response rating, Crabgrass, Large of O=C1NCC(c2ccc(F)c(C(F)(F)F)c2)C1C(=O)Nc1cccc(F)c1F (racemic) [Compound 77] .
Ans: 80

Q: Give the measured Plant response rating, Crabgrass, Large of O=C1NCC(c2ccc(F)c(F)c2)C1C(=O)Nc1ccccn1 (stereo not drawn) [Compound 45] .
Ans: 60

Q: Give the measured Plant response rating, Crabgrass, Large of O=C1NCC(c2ccc(F)c(F)c2)C1C(=O)Nc1ccccc1OC(F)(F)F (stereo not drawn) [Compound 54] .
Ans: 70

Q: Give the measured Plant response rating, Crabgrass, Large of O=C1NCC(c2ccccc2)C1C(=O)Nc1ccccc1Cl (racemic) [Compound 83] .
Ans: 20

Q: Give the measured Plant response rating, Crabgrass, Large of O=C1NCC(c2ccsc2)C1C(=O)Nc1ccccc1F (racemic) [Compound 29] .
Ans: 0

Q: Give the measured Plant response rating, Crabgrass, Large of O=C1NCC(c2ccc(Cl)c(F)c2)C1C(=O)Nc1cccc(F)c1F (stereo not drawn) [Compound 52] .
Ans: 80
